- ASSAY SYSTEM: rabbit liver carboxylesterase (rCE) (Oryctolagus cuniculus)
- Sequence (P12337 19-565): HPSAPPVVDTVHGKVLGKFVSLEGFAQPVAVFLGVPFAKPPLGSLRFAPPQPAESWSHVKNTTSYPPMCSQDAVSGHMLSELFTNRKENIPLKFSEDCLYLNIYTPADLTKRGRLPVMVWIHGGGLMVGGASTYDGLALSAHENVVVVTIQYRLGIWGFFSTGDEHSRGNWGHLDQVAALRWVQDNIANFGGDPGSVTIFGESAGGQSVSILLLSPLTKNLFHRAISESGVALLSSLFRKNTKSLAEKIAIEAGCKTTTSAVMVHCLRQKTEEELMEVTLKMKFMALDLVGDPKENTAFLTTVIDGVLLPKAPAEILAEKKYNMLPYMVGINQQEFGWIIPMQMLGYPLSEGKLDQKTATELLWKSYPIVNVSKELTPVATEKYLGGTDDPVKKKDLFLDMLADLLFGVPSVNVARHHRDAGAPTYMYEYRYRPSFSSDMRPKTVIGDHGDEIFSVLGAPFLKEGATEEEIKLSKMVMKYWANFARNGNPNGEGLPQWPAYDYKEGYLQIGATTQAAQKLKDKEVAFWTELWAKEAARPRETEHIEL
- RUN DESCRIPTION: biochemical
- Format: biochemical
- TEST CONDITIONS: o-NPA as substrate; Table 6; read-out: rCE Ki ± SE
Each entry below carries its reported Ki.
MEASURE NAME: Ki (nM)

compound="Cc1ccc(C(=O)C(=O)c2ccc(Cl)cc2)cc1 [Compound 22]" measure_name=Ki measured=16.2
compound="COc1cccc(C(=O)C(=O)c2cccc(OC)c2)c1 [Compound 33, 1,2-bis(3-methoxyphenyl)ethane-1,2-dione]" measure_name=Ki measured=72.1
compound="O=C(C(=O)c1ccc(Br)cc1)c1ccc(Br)cc1 [Compound 15, 1,2-bis(4-bromophenyl)ethane-1,2-dione]" measure_name=Ki measured=4.1
compound="COc1ccc(C(=O)C(=O)c2ccccc2)cc1 [Compound 6]" measure_name=Ki measured=200
compound="O=C(O)c1ccc(C(=O)C(=O)c2ccccc2)cc1 [Compound 1, 4-[oxo(phenyl)acetyl]benzoic acid]" measure_name=Ki measured=64
compound="O=C(C(=O)c1ccc([N+](=O)[O-])cc1[N+](=O)[O-])c1ccccc1 [Compound 11]" measure_name=Ki measured=520
compound="O=C(C(=O)c1ccc(Br)c([N+](=O)[O-])c1)c1ccc(Br)c([N+](=O)[O-])c1 [Compound 4]" measure_name=Ki measured=8.7
compound="O=C(C(=O)c1ccccc1Cl)c1ccccc1Cl [Compound 30, 1,2-bis(2-chlorophenyl)ethane-1,2-dione]" measure_name=Ki measured=220
